Molecular target: T1, HLA-DQ molecule DQB1*0402 (human, UniProt P01909 24-216; P01920 33-230, limits assumed)
T1 MHC II alpha: not shown
T1 MHC II beta: not shown
Test: inhibition of radiolabeled peptide binding to purified HLA-DQ
Measured metric: pIC50
Answer as the number alone; pIC50 is minus log10 of concentration in mol/L.

Field request: pIC50 | item: NLNIKLNMPLYIAGN [Cha o 1 (96-110) peptide NLNIKLNMPLYIAGN]
4.52
